System: Staphylococcus aureus (ATCC 29213)
Test: MIC determination, microbroth dilution
Format: cell-based
Conditions: ATCC29213; Staphylococcus aureus (ATCC 29213); read-out: MIC S.a.
Structures can show the parent of a compound that is named as a salt.
Reported Endpoint: MIC

Record CN[C@@H]1[C@H](O)[C@H](NC)[C@H]2O[C@]3(O)[C@H](O[C@@H]2[C@H]1O)O[C@H](C)C[C@@]3(O)CNCCCc1ccccc1 [compound 13, Trihydrochloride] : what is its MIC with Staphylococcus aureus (ATCC 29213)?
12.5 mg/L

# repeat for CN[C@@H]1[C@H](O)[C@H](NC)C2O[C@]3(O)C(OC2[C@H]1O)O[C@H](C)C[C@@]3(O)CNCc1cn(C)c2ccccc12 (some centres unmarked)
50 mg/L

New cases:
Give recorded MIC with Staphylococcus aureus (ATCC 29213) for the following compound: CN[C@@H]1[C@H](O)[C@H](NC)[C@H]2O[C@]3(O)[C@H](O[C@@H]2[C@H]1O)O[C@H](C)C[C@@]3(O)CNCc1ccc(Cl)cc1 [compound 18, Trihydrobromide]
25 to 50 mg/L

Please give the result for CN[C@@H]1[C@H](O)[C@H](NC)[C@H]2O[C@]3(O)[C@H](O[C@@H]2[C@H]1O)O[C@H](C)C[C@@]3(O)CNCc1ccc(F)c(F)c1 [compound 12, Trihydrochloride] too.
100 to 200 mg/L

What do we get for CN[C@@H]1[C@H](O)[C@H](NC)C2O[C@]3(O)C(OC2[C@H]1O)O[C@H](C)C[C@@]3(O)CNCCC(C)c1ccccc1 (some centres unmarked) ?
25 mg/L

Param item: CN[C@@H]1[C@H](O)[C@H](NC)[C@H]2O[C@]3(O)[C@H](O[C@@H]2[C@H]1O)O[C@H](C)C[C@@]3(O)CNCCN1CCOCC1
100 to 200 mg/L

Now try CN[C@@H]1[C@H](O)[C@H](NC)[C@H]2O[C@]3(O)[C@H](O[C@@H]2[C@H]1O)O[C@H](C)C[C@@]3(O)CNCCc1ccc(Cl)cc1 [compound 54, Trihydrobromide] .
100 to 200 mg/L

Next record, please: CN[C@@H]1[C@H](O)[C@H](NC)[C@H]2O[C@]3(O)[C@H](O[C@@H]2[C@H]1O)O[C@H](C)C[C@@]3(O)CNCc1cnc[nH]1
200 mg/L

Try the compound CN[C@@H]1[C@H](O)[C@H](NC)[C@H]2O[C@]3(O)[C@H](O[C@@H]2[C@H]1O)O[C@H](C)C[C@@]3(O)CNCc1ccccc1F [compound 14, Trihydrochloride]
200 mg/L

Then CN[C@@H]1[C@H](O)[C@H](NC)C2O[C@]3(O)C(OC2[C@H]1O)O[C@H](C)C[C@@]3(O)CNCc1cccn1C (some centres unmarked) ?
200 mg/L

Same lookup for CN[C@@H]1[C@H](O)[C@H](NC)C2O[C@]3(O)C(OC2[C@H]1O)O[C@H](C)C[C@@]3(O)CNCc1ccc(C)o1 (some centres unmarked) , please.
50 mg/L

Same again, this time with CN[C@@H]1[C@H](O)[C@H](NC)[C@H]2O[C@]3(O)[C@H](O[C@@H]2[C@H]1O)O[C@H](C)C[C@@]3(O)CNCc1ccc(C)cc1C [compound 24, Trihydrochloride]
6.3 to 12.5 mg/L

Entry CN[C@@H]1[C@H](O)[C@H](NC)[C@H]2O[C@]3(O)[C@H](O[C@@H]2[C@H]1O)O[C@H](C)C[C@@]3(O)CNCc1cccnc1 please
≥ 200 mg/L

Note, next up: CN[C@@H]1[C@H](O)[C@H](NC)[C@H]2O[C@]3(O)[C@H](O[C@@H]2[C@H]1O)O[C@H](C)C[C@@]3(O)CNCc1ccccc1Cl [compound 56, Trihydrobromide]
> 200 mg/L

Could you do the same for CN[C@@H]1[C@H](O)[C@H](NC)[C@H]2O[C@]3(O)[C@H](O[C@@H]2[C@H]1O)O[C@H](C)C[C@@]3(O)CNc1ccc(OC)cc1 [compound 29, Trihydrochloride] , please?
200 mg/L

Queued: CN[C@@H]1[C@H](O)[C@H](NC)C2O[C@]3(O)C(OC2[C@H]1O)O[C@H](C)C[C@@]3(O)CNCc1ccc(Cc2ccccc2)cc1 (some centres unmarked)
50 mg/L

Queued: CN[C@@H]1[C@H](O)[C@H](NC)[C@H]2O[C@]3(O)[C@H](O[C@@H]2[C@H]1O)O[C@H](C)C[C@@]3(O)CNCCc1nccs1
50 to 100 mg/L

CN[C@@H]1[C@H](O)[C@H](NC)[C@H]2O[C@]3(O)[C@H](O[C@@H]2[C@H]1O)O[C@H](C)C[C@]3(O)CNCc1ccc(F)cc1 [compound 28, Trihydrochloride] , same question.
> 200 mg/L

What would you report for CN[C@@H]1[C@H](O)[C@H](NC)[C@H]2O[C@]3(O)[C@H](O[C@@H]2[C@H]1O)O[C@H](C)C[C@@]3(O)CNc1ccc(F)cc1 [compound 31, Trihydrochloride] ?
200 mg/L

Follow-up entry: CN[C@@H]1[C@H](O)[C@H](NC)[C@H]2O[C@]3(O)[C@H](O[C@@H]2[C@H]1O)O[C@H](C)C[C@@]3(O)CNCc1ccc(Cl)s1 [compound 21, Trihydrobromide]
25 to 50 mg/L

====

Tested on: Enterococcus faecalis (ATCC 33186)
Experiment: MIC determination, microbroth dilution
Assay type: cell-based
Details: ATCC33186; Enterococcus faecalis (ATCC 33186); read-out: MIC E.f.
Counter-ions that a name gives are not always drawn.
Reported Endpoint: MIC (µg/mL)
Output spec: scalar in µg/mL, unitless text.

The examples below pair each entry with its known result.
// MIC lookup, key: CN[C@@H]1[C@H](O)[C@H](NC)[C@H]2O[C@]3(O)[C@H](O[C@@H]2[C@H]1O)O[C@H](C)C[C@@]3(O)CNCc1cccnc1
200

Same lookup for CN[C@@H]1[C@H](O)[C@H](NC)C2O[C@]3(O)C(OC2[C@H]1O)O[C@H](C)C[C@@]3(O)CNCc1ccc(-c2ccccc2)cc1 (stereo partly shown) , please.
25

Follow-up item: CN[C@@H]1[C@H](O)[C@H](NC)[C@H]2O[C@]3(O)[C@H](O[C@@H]2[C@H]1O)O[C@H](C)C[C@@]3(O)CNCc1cccc(C)n1
25

Proceed to CN[C@@H]1[C@H](O)[C@H](NC)[C@H]2O[C@]3(O)[C@H](O[C@@H]2[C@H]1O)O[C@H](C)C[C@@]3(O)CNCc1ccccc1 [compound 1, Trihydrochloride]
25

Continue with CN[C@@H]1[C@H](O)[C@H](NC)C2O[C@]3(O)C(OC2[C@H]1O)O[C@H](C)C[C@@]3(O)CNCc1cccc(C(F)(F)F)c1 (stereo partly shown)
25

// next item, MIC requested
Look at this molecule and give its reported MIC. CN[C@@H]1[C@H](O)[C@H](NC)C2O[C@]3(O)C(OC2[C@H]1O)O[C@H](C)C[C@@]3(O)CNCCCc1ccco1 (stereo partly shown)
50

====

Test system: Neisseria meningitides (ATCC 13077)
Test: Disc diffusion assay
Type: cell-based
Details: ATCC13077, 4 μg per disc, read-out: Zone of inhibition N.m.
Where a name gives a salt, the structure may show the parent alone.
Lab note: compare zone of inhibition at 4 µg/disc against 7 mm. Equal or greater, write yes (1). Smaller, write no (0).

Answered cases to consult:
Dear colleague, could you confirm whether CN[C@@H]1[C@H](O)[C@H](NC)[C@H]2O[C@]3(O)[C@H](O[C@@H]2[C@H]1O)O[C@H](C)C[C@@]3(O)CNCc1cccc(F)c1 [compound 15, Trihydrochloride] has zone of inhibition at 4 µg/disc at or above 7 mm?
yes (1)

Further, for CN[C@@H]1[C@H](O)[C@H](NC)[C@H]2O[C@]3(O)[C@H](O[C@@H]2[C@H]1O)O[C@H](C)C[C@@]3(O)CNCc1nccs1 ?
yes (1)

Same read-out for CN[C@@H]1[C@H](O)[C@H](NC)[C@H]2O[C@]3(O)[C@H](O[C@@H]2[C@H]1O)O[C@H](C)C[C@@]3(O)CNCc1ccccc1Cl [compound 56, Trihydrobromide] ?
no (0)

Continuing:
Does the molecule CN[C@@H]1[C@H](O)[C@H](NC)[C@H]2O[C@]3(O)[C@H](O[C@@H]2[C@H]1O)O[C@H](C)C[C@@]3(O)CNCc1ccc(C(C)C)cc1 [compound 23, Trihydrochloride] have recorded zone of inhibition at 4 µg/disc that is 7 mm or more?
yes (1)

And CN[C@@H]1[C@H](O)[C@H](NC)[C@H]2O[C@]3(O)[C@H](O[C@@H]2[C@H]1O)O[C@H](C)C[C@@]3(O)CNCCc1ccc(C(F)(F)F)cc1 [compound 58, Trihydrochloride] ?
yes (1)

Do the same for CN[C@@H]1[C@H](O)[C@H](NC)[C@H]2O[C@]3(O)[C@H](O[C@@H]2[C@H]1O)O[C@H](C)C[C@@]3(O)CNCc1ccc(C(F)(F)F)cc1 [compound 5, Trihydrochloride] please
yes (1)

What about CN[C@@H]1[C@H](O)[C@H](NC)[C@H]2O[C@]3(O)[C@H](O[C@@H]2[C@H]1O)O[C@H](C)C[C@@]3(O)CNCc1ccc(Cl)s1 [compound 21, Trihydrobromide] ?
yes (1)

Another: CN[C@@H]1[C@H](O)[C@H](NC)[C@H]2O[C@]3(O)[C@H](O[C@@H]2[C@H]1O)O[C@H](C)C[C@@]3(O)CNCc1cccc(C)n1
yes (1)

Another molecule: CN[C@@H]1[C@H](O)[C@H](NC)[C@H]2O[C@]3(O)[C@H](O[C@@H]2[C@H]1O)O[C@H](C)C[C@]3(O)CNCCc1ccccc1 [compound 27, Trihydrochloride]
no (0)

And what about the molecule CN[C@@H]1[C@H](O)[C@H](NC)[C@H]2O[C@]3(O)[C@H](O[C@@H]2[C@H]1O)O[C@H](C)C[C@@]3(O)CNCc1ccc(F)c(F)c1 [compound 12, Trihydrochloride] ?
yes (1)

Here is the next molecule: CN[C@@H]1[C@H](O)[C@H](NC)[C@H]2O[C@]3(O)[C@H](O[C@@H]2[C@H]1O)O[C@H](C)C[C@@]3(O)CNCc1ccco1 [compound 8, Trihydrochloride]
yes (1)

Now try CN[C@@H]1[C@H](O)[C@H](NC)[C@H]2O[C@]3(O)[C@H](O[C@@H]2[C@H]1O)O[C@H](C)C[C@@]3(O)CNCCN1CCOCC1 .
no (0)

Try the molecule CN[C@@H]1[C@H](O)[C@H](NC)[C@H]2O[C@]3(O)[C@H](O[C@@H]2[C@H]1O)O[C@H](C)C[C@@]3(O)CNCc1cccnc1
yes (1)
